target: human FAAH (Homo sapiens); construct: His6; made in house; host or cells: CHO cells, stably transfected; microsomal fraction used; experiment: [3H]-anandamide (AEA) hydrolysis by FAAH microsomes; type: biochemical; conditions: 0.5 μg human FAAH microsomes, 1 μM [3H]-AEA, 2 hours; read-out: IC50 of inhibition of FAAH-catalyzed anandamide hydrolysis
Sequence (O00519 whole entry): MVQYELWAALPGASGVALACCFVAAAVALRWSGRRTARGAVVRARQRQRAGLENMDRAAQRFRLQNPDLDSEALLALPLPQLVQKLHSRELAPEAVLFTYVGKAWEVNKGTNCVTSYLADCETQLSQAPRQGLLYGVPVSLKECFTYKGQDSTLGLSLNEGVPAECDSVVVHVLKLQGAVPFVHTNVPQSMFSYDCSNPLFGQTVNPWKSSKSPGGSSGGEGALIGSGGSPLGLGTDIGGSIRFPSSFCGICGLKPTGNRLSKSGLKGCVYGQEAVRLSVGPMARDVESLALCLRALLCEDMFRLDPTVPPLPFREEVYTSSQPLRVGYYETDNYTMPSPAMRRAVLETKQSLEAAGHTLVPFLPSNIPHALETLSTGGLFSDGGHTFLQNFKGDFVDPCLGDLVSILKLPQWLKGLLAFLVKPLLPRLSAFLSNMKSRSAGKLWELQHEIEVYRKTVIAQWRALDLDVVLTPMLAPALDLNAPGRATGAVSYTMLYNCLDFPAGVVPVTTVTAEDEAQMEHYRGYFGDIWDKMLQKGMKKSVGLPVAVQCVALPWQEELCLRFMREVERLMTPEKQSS
READOUT TYPE: IC50 (µM)
Return type: number; implicit unit µM.

Answer with reported IC50 of CCCCC/C=C\C/C=C\C/C=C\C/C=C\CCCC(=O)N[C@H](C)CO
7.4
